- tested system: Isopentenyl-diphosphate Delta-isomerase (Escherichia coli (strain K12))
- Sequence (Q46822 whole entry): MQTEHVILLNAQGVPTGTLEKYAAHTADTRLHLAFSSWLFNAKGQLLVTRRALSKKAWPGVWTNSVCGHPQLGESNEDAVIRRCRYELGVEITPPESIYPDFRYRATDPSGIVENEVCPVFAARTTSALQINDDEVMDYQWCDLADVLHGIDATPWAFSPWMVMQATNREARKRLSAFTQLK
- measurement protocol: Inhibition of Escherichia coli IPP isomerase
readout: pIC50
Friendly reminder that pIC50 comes from taking -log10 of the concentration in mol/L.

- compound structure string: "CN(C)CCCP(=O)(O)CP(=O)(O)O"
  tested system: "Isopentenyl-diphosphate Delta-isomerase (Escherichia coli (strain K12))"
  pIC50: 4.48

// field: pIC50; key: N=C(N)NCCP(=O)(O)CP(=O)(O)O ; value = 6.15

// field: pIC50; key: CS(=O)(=O)NC(=O)CCNC(=N)N ; value = 2.92

// field: pIC50; key: N=C(N)NCCC(=O)NO ; value = 3.17
